Examples of compounds with documented IC50 follow.
- Test Target: JAK2 (Homo sapiens, UniProt O60674)
- Construct: host or cells: baculovirus expression system
- Sequence (O60674 whole entry): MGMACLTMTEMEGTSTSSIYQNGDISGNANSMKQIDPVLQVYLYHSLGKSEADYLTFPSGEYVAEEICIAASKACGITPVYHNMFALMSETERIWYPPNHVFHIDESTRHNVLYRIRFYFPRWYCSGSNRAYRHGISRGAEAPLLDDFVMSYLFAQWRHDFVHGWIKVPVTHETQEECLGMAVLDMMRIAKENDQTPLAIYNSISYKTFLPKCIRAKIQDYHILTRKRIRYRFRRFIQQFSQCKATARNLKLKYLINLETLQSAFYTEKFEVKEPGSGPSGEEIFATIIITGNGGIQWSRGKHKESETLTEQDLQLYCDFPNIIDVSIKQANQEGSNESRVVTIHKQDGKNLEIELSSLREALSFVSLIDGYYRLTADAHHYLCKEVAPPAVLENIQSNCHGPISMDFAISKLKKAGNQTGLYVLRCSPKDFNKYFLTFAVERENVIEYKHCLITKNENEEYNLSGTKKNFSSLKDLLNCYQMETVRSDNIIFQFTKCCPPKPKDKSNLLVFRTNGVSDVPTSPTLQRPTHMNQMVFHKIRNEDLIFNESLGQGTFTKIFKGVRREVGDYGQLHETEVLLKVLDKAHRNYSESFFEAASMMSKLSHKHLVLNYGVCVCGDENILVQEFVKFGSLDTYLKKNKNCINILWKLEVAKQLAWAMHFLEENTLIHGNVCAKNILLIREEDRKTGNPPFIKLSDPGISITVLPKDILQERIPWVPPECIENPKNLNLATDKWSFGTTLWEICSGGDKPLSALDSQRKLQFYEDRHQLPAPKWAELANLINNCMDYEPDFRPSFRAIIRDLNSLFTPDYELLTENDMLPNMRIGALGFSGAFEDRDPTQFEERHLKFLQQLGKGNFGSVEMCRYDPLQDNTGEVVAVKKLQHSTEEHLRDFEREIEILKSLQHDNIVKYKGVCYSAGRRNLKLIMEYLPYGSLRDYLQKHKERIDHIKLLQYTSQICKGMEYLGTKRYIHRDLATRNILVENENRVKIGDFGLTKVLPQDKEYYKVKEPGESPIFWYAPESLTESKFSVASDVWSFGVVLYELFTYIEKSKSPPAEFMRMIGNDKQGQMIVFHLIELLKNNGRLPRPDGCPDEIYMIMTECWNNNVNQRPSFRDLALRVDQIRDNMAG
- Test Description: Recombinant Human JAK2 Kinase Assay (TRF)
- Assay type: biochemical
- Condition Details: JAK2 kinase inhibition, 0.2 μM ATP; read-out: JAK2 Potency

Recorded IC50, per entry:
O=S(=O)(c1cccc(-c2ccc3cnc(Nc4ccc(C5CCN(CCO)CC5)cc4)nn23)c1)N1CCCC1 [Example 678] : < 100 nM
COc1cc(N2CCN(C[C@H](C)O)CC2)ccc1Nc1ncc2ccc(-c3cccc4c3OCCO4)n2n1 [Example 547] : < 100 nM
CN(c1ccccc1-c1ccc2cnc(-n3ccnc3)nn12)S(C)(=O)=O [Example 622] : < 100 nM
CNC(=O)CN1CCC(c2ccc(Nc3ncc4ccc(-c5ccccc5OC)n4n3)c(OC)c2)CC1 [Example 867] : 100 to 1000 nM
COc1cc(C2CCN(C)CC2)ccc1Nc1ncc2ccc(-c3ccccc3OC)n2n1 [Example 762] : < 100 nM
COc1ccccc1-c1ccc2cnc(Nc3ccc4c(c3)COCCN4C)nn12 [Example 618] : < 100 nM
CC(C)S(=O)(=O)c1cccc(-c2ccc3cnc(Nc4ccc(Cl)c(OC[C@H]5CCCN5)c4)nn23)c1 [Example 1016] : < 100 nM
CN1CCC(c2ccc(Nc3ncc4ccc(-c5cccc(S(=O)(=O)N(C)C)c5)n4n3)cc2)CC1 [Example 902] : < 100 nM
c1cncc(-c2ccc3cnc(Nc4ccn(CCN5CCOCC5)n4)nn23)c1 [Example 1184] : < 100 nM
CN1CCN(c2ccc(Nc3ncc4ccc(-c5cccc(CN(C)S(C)(=O)=O)c5)n4n3)cc2)CC1 [Example 1048] : < 100 nM

Now look at this entry.
### Prompt Report value: IC50, system: JAK2 (Homo sapiens, UniProt O60674), compound: COc1ccc(-c2ccc3cnc(Nc4ccc(C5C(=O)N(C)CCN5C)cc4)nn23)cn1 (stereo not shown) [Example 1072]
### Response < 100 nM

* * *

- Test Target: JAK2 (Homo sapiens)
- Construct: host or cells: baculovirus expression system
- Test Description: Recombinant Human JAK2 Kinase Assay (TRF)
- Type: biochemical
- Condition Details: JAK2 kinase inhibition, 0.2 μM ATP; read-out: JAK2 Potency
Measure: IC50

Recorded IC50, per entry:
COc1cc(C2CCN(CC(N)=O)CC2)ccc1Nc1ncc2ccc(-c3cc(F)ccc3N(C)S(C)(=O)=O)n2n1 : 1000 to 10000 nM
COc1cc(N2CCC(N(C)C)CC2)ccc1Nc1ncc2ccc(-c3ccccc3N(C)S(C)(=O)=O)n2n1 : 100 to 1000 nM
CS(=O)(=O)Nc1cccc(-c2ccc3cnc(Nc4cnn(CCN5CCOCC5)c4)nn23)c1 : < 100 nM
CN1CCN(c2ccc(Nc3ncc4ccc(-c5ccc(CN6CCS(=O)(=O)CC6)cc5)n4n3)cc2)CC1 : < 100 nM
CN1CCN(c2ccc(Nc3ncc4cc(-c5cccnc5)cn4n3)cc2)CC1 : 100 to 1000 nM

### Prompt Determine its reported IC50: CN1CCN(C)C(c2cccc(Nc3ncc4ccc(-c5cccc(S(=O)(=O)N6CCOCC6)c5)n4n3)c2)C1=O (stereo not shown)
### Response < 100 nM

### Prompt Determine its reported IC50: `CS(=O)(=O)c1cccc(-c2ccc3cnc(Nc4ccc(C5=CCN(CC(N)=O)CC5)c(C(F)(F)F)c4)nn23)c1`
### Response < 100 nM
